systemTested: T1, TFAM (no MTS) (Homo sapiens, UniProt Q00059 43-246)
T1 sequence: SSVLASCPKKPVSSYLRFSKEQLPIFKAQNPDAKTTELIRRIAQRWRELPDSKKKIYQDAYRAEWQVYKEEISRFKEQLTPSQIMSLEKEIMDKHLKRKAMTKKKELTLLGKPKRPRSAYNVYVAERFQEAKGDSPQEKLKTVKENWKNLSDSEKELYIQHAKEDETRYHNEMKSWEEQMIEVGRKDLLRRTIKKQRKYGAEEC
experimentNotes: fluorescence anisotropy; Hill n 2.46±0.23; FP: 25 mM HEPES, 10 mM Mg(OAc)2, 25 mM NaOAc, 75 mM KOAc, pH 7.5, 1 nM DNA, TFAM 0-15 nM diluted on ice (read temperature not stated); AFM oligos: on ice, 2 min
conditionNotes: protein: recombinant; label: 5' 6-FAM on strand 1; blunt
quantityName: Kd (nM)
Give the number; nM is assumed, so skip it.

**Q:** Look up Kd: RNR2_619 (dsDNA) DNA 1: ATTGATCCAATAACTTGACCAACGGAACAAGTT DNA 2: AACTTGTTCCGTTGGTCAAGTTATTGGATCAAT
**A:** 4.89
